Source of measurements: ChEMBL document CHEMBL4680343

- Test system: Staphylococcus aureus
- method_notes: Antimicrobial activity against Staphylococcus aureus ATCC 25923 assessed as inhibition of microbial growth incubated for 16 to 20 hrs under ambient air condition by broth microdilution assay
- Type: functional
- condition_description: time 16-20 hrs

compound: C/C=C1\NC(=O)[C@H]([C@@H](C)O)NC(=O)c2csc(n2)-c2cc(O)c(-c3nc(C(=O)NC(CNc4ccccc4I)C(N)=O)cs3)nc2-c2csc(n2)[C@@H]2CSC(=O)c3[nH]c4cccc(c4c3C)COC(=O)[C@H](O)C[C@H](NC(=O)c3csc1n3)c1nc(cs1)C(=O)N2 (stereo partly drawn)
system_under_test: Staphylococcus aureus
MIC, µg/mL: 0.062
--
compound: C/C=C1\NC(=O)[C@H]([C@@H](C)O)NC(=O)c2csc(n2)-c2cc(O)c(-c3nc(C(=O)NC(CNc4ccc(Br)cc4)C(N)=O)cs3)nc2-c2csc(n2)[C@@H]2CSC(=O)c3[nH]c4cccc(c4c3C)COC(=O)[C@H](O)C[C@H](NC(=O)c3csc1n3)c1nc(cs1)C(=O)N2 (stereo partly drawn)
system_under_test: Staphylococcus aureus
MIC, µg/mL: 0.062
--
compound: C/C=C1\NC(=O)[C@H]([C@@H](C)O)NC(=O)c2csc(n2)-c2cc(O)c(-c3nc(C(=O)NC(CNc4ccc(F)cc4)C(N)=O)cs3)nc2-c2csc(n2)[C@@H]2CSC(=O)c3[nH]c4cccc(c4c3C)COC(=O)[C@H](O)C[C@H](NC(=O)c3csc1n3)c1nc(cs1)C(=O)N2 (stereo partly drawn)
system_under_test: Staphylococcus aureus
MIC, µg/mL: 0.031
